These measurements were taken from paper PMC6266398.

# CC50 at 24 h per entry
# Method: cytotoxicity test, alamarBlue method
# Type: cell-based
# Condition: mouse, J774A.1 macrophages (ATCC TIB-67), 37 °C, read-out: CC50 against murine macrophage J774.A1
Provide only the numeric value, understood in µg/mL.

Molecule	Experimental Result
Cc1ccc([C@]2(C)CC[C@H](Br)C2(C)C)cc1 [compound 5, α-isobromocuparane]	85.3
C[C@@H](c1ncncc1F)[C@](O)(Cn1cncn1)c1ccc(F)cc1F [Voriconazole, voriconazole, reference compound]	2.64

Please find the next molecule below.
Endpoint output: CC50 at 24 h of Cc1ccc([C@]2(C)CC[C@@H](Br)C2(C)C)cc1 [compound 4, α-bromocuparane] . Value?
33
